Target: GST-Xa-hAAK1 (Homo sapiens (Human), UniProt Q2M2I8)
Sequence (Q2M2I8 whole entry): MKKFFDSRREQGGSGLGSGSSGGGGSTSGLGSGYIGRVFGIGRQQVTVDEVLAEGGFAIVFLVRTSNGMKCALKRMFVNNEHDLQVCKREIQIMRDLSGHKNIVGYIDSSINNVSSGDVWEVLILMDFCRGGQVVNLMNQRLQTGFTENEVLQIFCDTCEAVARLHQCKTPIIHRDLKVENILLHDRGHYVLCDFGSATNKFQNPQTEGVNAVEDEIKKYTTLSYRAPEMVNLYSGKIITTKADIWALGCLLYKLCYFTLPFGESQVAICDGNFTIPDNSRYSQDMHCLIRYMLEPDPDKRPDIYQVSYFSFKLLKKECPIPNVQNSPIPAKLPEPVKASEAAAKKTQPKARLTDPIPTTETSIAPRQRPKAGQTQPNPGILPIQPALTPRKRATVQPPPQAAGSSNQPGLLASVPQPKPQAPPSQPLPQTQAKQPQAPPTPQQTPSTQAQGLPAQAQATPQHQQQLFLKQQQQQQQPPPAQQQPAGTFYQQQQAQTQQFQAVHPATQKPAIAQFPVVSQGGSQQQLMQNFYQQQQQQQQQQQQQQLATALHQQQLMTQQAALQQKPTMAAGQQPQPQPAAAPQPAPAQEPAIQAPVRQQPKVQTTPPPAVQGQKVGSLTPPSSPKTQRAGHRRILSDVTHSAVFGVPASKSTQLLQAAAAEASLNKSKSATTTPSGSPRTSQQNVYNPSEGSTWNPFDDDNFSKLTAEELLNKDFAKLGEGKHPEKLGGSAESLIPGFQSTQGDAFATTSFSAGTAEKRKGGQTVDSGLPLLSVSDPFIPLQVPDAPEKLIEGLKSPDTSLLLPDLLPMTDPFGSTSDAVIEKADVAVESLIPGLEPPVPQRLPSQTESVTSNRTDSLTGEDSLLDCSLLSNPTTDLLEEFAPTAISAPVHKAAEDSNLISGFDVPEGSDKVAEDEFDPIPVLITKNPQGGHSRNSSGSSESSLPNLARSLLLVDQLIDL
pIC50: −log10 of the molar value.
Binary classification by pIC50, with 8 as an inclusive lower bound for MET; all other cases are NOT MET.

1) CCC(C)CC(=O)Nc1cc(-c2ccc(OC[C@@](C)(N)CC(C)C)c(C(F)(F)F)c2)ccn1 (stereo partly shown) = MET
2) COC(=O)Nc1nccc(-c2ccc(OC[C@@](C)(N)CC(C)C)c(Cl)c2)n1 = MET
3) COc1cc(-c2ccc(OC[C@@](C)(N)CC(C)C)c(C#N)c2)ncn1 = NOT MET
4) CC(C)C[C@](C)(N)COc1ccc(-c2ccnc(CF)c2)nc1C(F)F = MET
5) Cc1nccc(-c2ccc(OC[C@@](C)(N)CC(C)C)c(F)c2)n1 = NOT MET

Q: Test whether the molecule COC(=O)Nc1cc(-c2cc(F)c(OC[C@@](C)(N)CC(C)C)cc2F)ncn1 records pIC50 of 8 or higher.
Result: MET

Q: Moving on to COC(=O)Nc1nccc(-c2cnc(OC[C@](C)(N)CC(C)C)c(F)c2)n1
Result: NOT MET

Q: Try Cc1nccc(-c2ccc(OCC(N)(CC(C)C)C(F)(F)F)c(C)n2)n1 (single isomer, unassigned) [Example 359] next.
Result: NOT MET

Q: Another molecule to look at: CCc1cc(-c2ccc(OC[C@@](C)(N)CC(C)C)c(C#N)c2)ncn1
Result: NOT MET

Q: # repeat for Cc1nccc(-c2cc(C#N)c(OC[C@@](C)(N)CC(C)C)cn2)n1
Result: NOT MET

Q: Another molecule to look at: Cc1nccc(-c2ccc(OC[C@@](C)(N)CC(C)C)c(CF)c2)n1
Result: MET

Q: Another: Cc1nccc(-c2ccc(OCC(N)(CC(C)C)C(F)(F)F)c(C)n2)n1 (single isomer, unassigned) [Example 360]
Result: NOT MET

Q: Try Cc1cc(-c2ccc(OC[C@@](C)(N)CC(C)C)c(C(F)F)c2)ncn1 next.
Result: NOT MET
